Experiment: soluble on expression in E. coli; label from the status in PepcDB or PDB records
Measurement Kind: soluble on expression in E. coli

These solved cases illustrate the format of a correct answer.
Query string: I'd like to know its soluble on expression in E. coli. The sequence in question is `THSQLDQLLTGLVDRVAEVDHAVVLSEDGLVVSKSTGFLRDDAERLAATASGLMSLSKGVSMDFRRGPVRQALIEMGKGYLILTAAGPGAHLVVLTRQGADVGVVAYQMNMLVKKIGEHLSAPPRG`
Result string: soluble

Query string: Can you look up the measured soluble on expression in E. coli of `MHNKIVRIASSALTGGKLLEKLKPLTRWEVQWDPNKTKCLGITREVTFKDYETTWAFLTRVSMRSHLWGHHPLIHTSYTWVKLELHTHDIDPKDGAHSQLSDIDVRMAKRIDSYIDEMTT` for me?
Result string: not soluble

Query string: Fill in: soluble on expression in E. coli of `MMNLRSIAMNKPDLVIFFDGQCPLCCNEMRALKTADHQARILLVDVHDTDTMSCYPSIDKQRALSILHGIDQQGQLLYGLDVTVLAWRLVNRHRWLFITRMPILKGISDRMYLLFAKHRMRLSRWFGQTQCQEGVCQKKLEHHHHHH` is ___
Result string: soluble

Query string: Given the entry `MSLDSSPHSQVNDPLESFNRQMWTINYDYLDPYVVRPVSLFYVGYVPKPVRSGIANFLSNLDEPASMVNNLLMGNGTKAVDHFNRFWINTSFGLLGLIDIASEAGIKKYDDKAFSDAVGHYGVGNGPYLMVPGYGPYTVREVTDVVDGMYFPLAYLNIWAGVGKWALEGMETRAALVSQEALLQDSPDPYSLARDAYLQRQAFKAEIQVDDYDPEEEEYLDEYLNEGEGHHHHHH` , report its measured soluble on expression in E. coli.
Result string: soluble

Query string: So what's the measured soluble on expression in E. coli for this one? `MSLTIDRIRALVSEDFNAVNNLIIDKIQSQVGLIQDLSQHIVESGGKRLRPLVVLLASNACGYKGKDHISLAAMVEFFHTATLLHDDVIDESTLRRGRQTANSIWGSKASVLVGDYLFTQSVNLMVEVGIKEILNLLANTSHQITCGEVKQLANRHNPALTLDDYFDVIRAKTALLFAAAACIGPILTNAPIELRNSLYNYGLHLGNAFQLIDDALDYCSDAATLGKNIGDDLADGKATLPLIHALQNGNATQQQQIRESLMKGSLSHLPDILIAIEQTEAIPFTKRIAAQEVDSALSALEILPDSVYKEALVDLAKFALERNYEGHHHHHH`
Result string: soluble

Query string: What does the data say about its soluble on expression in E. coli? Entry: `MGSDKIHHHHHHMKKTIILSDENYYSQEADLAYMSVSQYKKFLECEAAALAKLKGEWTPENDPKALLVGNYVHSYFESPEIHEAFKEENKSKMFSSRKPFGLLKDFQIAEQMIERLKQEEAFLNIYQGEKEVIVTGEIGGAMWKGKIDCLNLEEKYFVDIKTTKDMHEKKWDERLNRKANFIERFGYVLQMAVYCELLRQQYDKIFLPLIAAVSKQTPSEAKLITLSEEKMIYELEELKENIEHVVRVKNGEEEPVSCGICEYCRGHNKITNFTSMDDL`
Result string: not soluble

Lab note: next sequence to report on.
Query string: Need soluble on expression in E. coli, item `MMTKTTTVPKNVYELAQERLRIVFNEFDNVYLSFSGGKDSGVLLSLCIDYIRRNNLKIKLGVFHMDYEIQYKMTIDYIARMLEDNKDILEVYRVCVPFRVATCTSMYQSFWRPWEDSKKDLWVRPLPENAMTKEDFPFYNTQMWDYEFQMRFASWLHEKKDAVRTCCLIGIRTQESFNRWRCIYLNRKYQMYHRYRWTSKVGNDIFNAYPIYDWKTTDVWTANGKFKWDYNKLYDYYYW`
Result string: not soluble

====

Assay: soluble on expression in E. coli; label from the status in PepcDB or PDB records
Measurement Kind: soluble on expression in E. coli

Solved entries:
Query string: Give the measured soluble on expression in E. coli of `MGSDKIHHHHHHMIAVLDMGTNSFILLVVSEKGETILEEVHEVGIASGNLEKAKEVFKECVEKAEKMGAELHIFGTAFFRKHPDIFQQITGGRGEILPEEKEAYYSYISVAKDFGKKDILVADLGGGSLELAWKDGYVSLELGTHVLNRTFSLTLPYIEPVDGIVEYVMKRLPEVKKDELFGVGGSFVALAALMKGKWDLEILHGSVLKLEEVEKLVDKIKRMSFEDVKNLKVLPEGREKTILAGGIVTIALLRKYSPRMTVSTRGYRYGIVWEILEKRWRARGDSNPQPPDPQSGALSN` .
Result string: not soluble

Query string: So what does the record say about soluble on expression in E. coli for `MVSTYDEIEIEDMTFEPENQMFTYPCPCGDRFQIYLDDMFEGEKVAVCPSCSLMIDVVFDKEDLAEYYEEAGIHPPEPIAAAA` ?
Result string: soluble

Query string: Find the recorded soluble on expression in E. coli belonging to `MTQTNNRLFDEIGRLMNDAAGAAQGVKREIDGVVRSQAEKILRDLDLVKREEFEAFKEMVRLTREENEALKARIAALEARQGGGSEPPTALA` and report it.
Result string: not soluble

Query string: Requested field: soluble on expression in E. coli. Item: `MEYSQIPSFAFYNNASIFQFFPRNKRLNTHQKSCLDEHARKMAVFMMERQEEYRYYENLANQEQFSDDACFSDTGMDSGFCSGATSTGQSASTSPAPAHLIPNPFFDPEYVAKAQSPVKLVANPFYNPELVKEIKKKSRVSV`
Result string: not soluble

Query string: Field request: soluble on expression in E. coli | item: `MPPYTVVYFPVRGRCAALRMLLADQGQSWKEEVVTVETWQEGSLKASCLYGQLPAFQDGDLTLYQSNTILRHLGRTLGLYGKDQQEAALVDMVNDGVEDLRCKYISLIYTNYEAGKDDYVKALPGQLKPFETLLSQNQGGKTFIVGDQISFADYNLLDLLLIHEVLAPGCLDAFPLLSAYVGRLSARPKLKAFLASPEYVNLPINGNGKQ`
Result string: soluble

---
Query string: Recorded soluble on expression in E. coli for `MRTLPILLLVIVGVVYCYPLNEDNVDLESDVAEMEGAELDRVKRASDHKLEKKLDEIMEKVEKIKDKIEENKEKREKKNKKKGNKKDEDEEEEEDKDKKKKDKKKNKDSEEEEDKKKDKKKKNDSSDESEEENKKRKNKRKN` , please?
Result string: not soluble

Query string: What value of soluble on expression in E. coli has been reported for the following sequence? `MGHHHHHHSHMEAEESEKAATEQEPLEGTEQTLDAEEEQEESEEAACGSKKRVVPGIVYLGHIPPRFRPLHVRNLLSAYGEVGRVFFQAEDRFVRRKKKAAAAAGGKKRSYTKDYTEGWVEFRDKRIAKRVAASLHNTPMGARRRSPFRYDLWNLKYLHRFTWSHLSEHLAFERQVRRQRLRAEVAQAKRETDFYLQSVERGQRFLAADGDPARPDGSWTFAQRPTEQELRARKAARPGGRERARLATAQDKARSNKGLLARIFGAPPPSESMEGPSLVRDS`
Result string: not soluble

Query string: Any idea what its soluble on expression in E. coli is? The sequence is `MTQIVVGENEHIESALRRFKREVSKAGIFQDMRKHRHFETPIEKSKRKKLALHKQSKRRFRTLEHHHHHH`
Result string: not soluble

====

Assay: soluble on expression in E. coli; label from the status in PepcDB or PDB records
Measurement Kind: soluble on expression in E. coli

Query string: Value lookup for soluble on expression in E. coli; key = `MQVDADLRPILGPQLVRLDPMRVKQLQDPIVYEAIDNLAKLSAHCLQLRTPLTTCEKLINSDSTLYLSWKYDEEEKVSRLMGFAKVGRKKLFLYDSQMQTYEGEILCLLDFYVHFSCQRQGVGQQILDYMFSQEHTEPYQLALDNPSVTLLGFMSQKYGLIKPVWQNTNFVVFEELFLALSAENGIEKPPPDGWRRPMTPRRLGTGMTDTRWLQHAVSGHQSKGNAMAAPVDADMTPQGALSNRAHQAKARKAHILSSKPLW`
Result string: soluble

Query string: # input sequence: `MENKRTLVVALGGNALLKRGEPLEADIQRKNIELAARTIAQLTRQWRVVLVHGNGPQVGLLALQNSAYANVTPYPLDILGAESQGMIGYMLQQALKNHLPEREISVLLTQVEVDANDPAFLNPTKYIGPIYDEAQARALQAEKGWVFKADGNAFRRVVPSPQPKRIVENDAIRALISRDHLVICNGGGGVPVVEKADGYHGIEAVIDKDLSAALLASQIHADALLILTDADAVYLDWGKPTQRPLAQVTPELLREMQFDAGSMGPKVTACAEFVSHCRGIAGIGSLADGQAILAGEKGTLIRCETADVDA` ; wanted: its soluble on expression in E. coli
Result string: not soluble

Query string: Using the record for `MIKMGRSEMKIASAELRELMKAVSEGHYETVNTILDKDPELVNQYAPPTYDSPLARVLNKKHIDYKMLDILVKHHVDFDYPINYHKETPIELACKNQDLQLFKYLVQHNAPISEQAPHFLLVNSTNIKYLTEDKIKNTCEIIKLMGGLEAVSSKCDAEGNRFGEQARKSQLINRFGGIVKYDYMQLLQSVYPIVDREVDAPTIHGSTEVLTNLLNKIRGQFSSKETYDQQNLKDSISLFFMTGGEIPPSRKVPESRFEEAGIDTPKNAL` , report its soluble on expression in E. coli.
Result string: not soluble

Query string: So what does the record say about soluble on expression in E. coli for `MTTTLSPDTARQIVPPEERYAAELAFLAAYDDGPRPPAWRLTPRAVVTFVMGSDGRALRLPEGAETPEGVPRRLTVEGKFVGDRSLVERCVVTLAGERGLLLVGEPGTAKSMLSELLSAAVCGTSGLVVQGTAGTTEDQLKYGWNYALLLAQGPSRTALVPSPVLTAMARGGIARVEEVTRCLPEVQDALVSLLSERRIAVPELSGTDDALAHAAPGFNLIATANLRDKGVSEMSAALKRRFNFETVGPIPDLDAETALVRSQARASVERAGAPFKVDEAVLEALVVAFRDLREGRSTEGWEVERPSTVMSTAEAVSVAGALGLAAAYFPGDRDVLGLLPGHLLGVVRKDDPADAARLRGYWDGPVRRRAEQGSATWRTLWDLRTVLEGLEHHHHHH` ?
Result string: not soluble

Query string: Name the recorded soluble on expression in E. coli for `METTIFQFQKTFFTKPPKERVFVLHGEEQYLIRTFLSKLKEKYGENYTVLWGDEISEEEFYTALSETSIFGGSKEKAVVIYNFGDFLKKLGRKKKEKERLIKVLRNVKSNYVFIVYDAKLQKQELSSEPLKSVASFGGIVVANRLSKERIKQLVLKKFKEKGINVENDALEYLLQLTGYNLMELKLEVEKLIDYASEKKILTLDEVKRVAFSVSENVNVFEFVDLLLLKDYEKALKVLDSLISFGIHPLQIMKILSSYALKLYTLKRLEEKGEDLNKAMESVGIKNNFLKMKFKSYLKANSKEDLKNLILSLQRIDAFSKLYFQDTVQLLRDFLTSRLEREVVKNTSHGG` .
Result string: soluble

Query string: Which value of soluble on expression in E. coli has been reported for `KAGQVDTNDLWSSIPVSPDEYITQRLPILVARMREQWSNNDHVKRYIDLCRRNIVGPRGIVMQAQSRKSRSGALDTAINDAIETWWQDWGRKGQCEVTGKLSWREIQTLCVETCARDGEFIARKIYGTHAGPHGFCLQLIDPLRLPVRYQMLKTDQTGGFVRQGIEFNRFGKPLAYHFSSIDERDTYYYSINGRGYIRVPAEEVIHIFKPVMVGQRRGLPWAATSLLRLHHLQGFEEAAVQNARAAASKMGFVCYPEGVGPRADEQENVAQTIQMNAGPLAIHELPQGAEFQDWNPQYPSGEFGLFTKAAKQSLAAGMDLSYHALSGDLADVNYSSIRQGTLDERERWKEDQQ` in the records?
Result string: not soluble

Query string: Give its soluble on expression in E. coli value. Item: `WGYECIGMFRSYQEINEYFDKYSITKYLGNTKENVHPGMLIYKDVRGQYDESTGTFGPADGIVDEQDYIKISHRASNPYGGTLNFGFSYKDFSISAQFGASWGAYSLVPTTMRKESYSEYSNVSAMWKDMFVYEDIYDANNIVTVAQNRNAKYPNIRYSSVNGAPSTFWKVSAATVQLRNMTVAYALPKEWLKIIGISSCRFNLTCQNVFNFLNPYPEGAWASWAGSYGYYPNLRKFTLGVNVSF`
Result string: not soluble

Query string: // query soluble on expression in E. coli value for entry `MAHHHHHHMSITAGTLPPVKGTSVKKSPRKGRPADSMGNGTGAAADPHCYHKCRCYGHDDTLPNYKLLTIPRTNNYYAATGGCPCVPRVAAHPGSWRLKEGQLRSSTYRCGTGCIKKSAALTLGCCHHSGDQYGWRRGPHTVLDKNTAATGKCDTFGNLAFKSTSRAYCAVGGDDLSDVSSASPQKLEDLEALILEEHQQRMRVEEDVDELAGIQRNGTADWYKKIHHDAERRRLLAQISEVELQDLLRDVKNIVDRPLNQTNMDLLRRILHRQEHLQRQREYYAAQELE`
Result string: not soluble

More entries:
Query string: Would you mind telling me what soluble on expression in E. coli value was observed for `MGSSSSFSSSSSKLLFRQLFENESSTFTYLLADVSHPDKPALLIDPVDKTVDRDLKLIDELGLKLIYAMNTHVHADHVTGTGLLKTKLPGVKSVISKASGSKADLFLEPGDKVSIGDIYLEVRATPGHTAGCVTYVTGEGADQPQPRMAFTGDAVLIRGCGRTDFQEGSSDQLYESVHSQIFTLPKDTLIYPAHDYKGFEVSTVGEEMQHNPRLTKDKETFKTIMSNLNLSYPKMIDVAVPANMVCGLQDVPSQAN` ?
Result string: soluble

Query string: // soluble on expression in E. coli lookup, key: `SPKRETKKIKPSQEVIKEGPFLVAIHLKGIYMSNYTNSPCAACKFLRRKCTSDCVFAPYFPPEEPTKFANVHRIFGASNVSKILHEVAPHQREDAVNSLAYEAEARLKDPVYGCVGAISVLQRQVLRLQRELEETNADLMRYAGCLGGETTSAYGGRRG`
Result string: soluble

Query string: Fill blank: measured soluble on expression in E. coli of the sequence `MAHHHHHHMKSFSVTPRVWRRISEKNAEEGYGNDLRYLRLMIESGGCHGYAYKFLFEENSELVADEDVVVAESDVVQLPQPKSQELRTVAEGEGEGDVGESKAKGPPPRLVVDKHSVAKLLSAVVDFHSELKGSAFVVIGNELVDKSCACAMSFSMKKQQQKV` is ____.
Result string: not soluble
